- Test system: Candida albicans
- method notes: Antifungal activity against drug-resistant Candida albicans
- Assay type: functional
readout label: MIC

[Q] MIC for Cc1nc(-c2c[nH]c3ccc(F)cc3c2=O)cs1 ?
[A] 985 µM

[Q] Item C/C(Cn1cc(-c2csc(C)n2)c(=O)c2cc(F)ccc21)=N\NC(N)=S has what recorded MIC?
[A] 658 µM

[Q] # query: MIC of entry Cc1nc(-c2c[nH]c3c(F)cc(F)cc3c2=O)cs1
[A] 1840 µM

[Q] Which MIC value is on record for Cc1nc(-c2c[nH]c3cc(F)c(F)cc3c2=O)cs1 ?
[A] 460 µM

[Q] I am curious: what MIC value has been reported for CC(=O)Cn1cc(-c2csc(C)n2)c(=O)c2cc(F)c(F)cc21 ?
[A] 1530 µM

[Q] Record request: MIC value, item Nc1nc(-c2c[nH]c3c(F)cccc3c2=O)cs1
[A] 981 µM

[Q] Look up MIC for this molecule: C/C(Cn1cc(-c2csc(N)n2)c(=O)c2cc(F)c(F)cc21)=N\NC(N)=S
[A] 1260 µM

[Q] Dear colleague, I am looking for the recorded MIC of the following molecule: CC(=O)Cn1cc(-c2csc(N)n2)c(=O)c2cc(F)c(F)cc21
[A] 764 µM

[Q] Looking for the measured MIC of C/C(Cn1cc(-c2csc(N)n2)c(=O)c2cc(F)c(Cl)cc21)=N\O , can you help?
[A] 87 µM

[Q] Reported MIC, molecule Nc1nc(Cn2cc(-c3csc(N)n3)c(=O)c3cc(F)c(Cl)cc32)cs1 : ____
[A] 157 µM

[Q] Could you tell me which MIC is on file for CCOC(=O)c1cn(C/C(C)=N/NC(N)=S)c2cc(F)c(F)cc2c1=O ?
[A] 1340 µM
